The reported measurements were obtained from patent EP0590919A1.

Consider the following compounds and their measured Remission Rate (%) readings.
# System: Haloperidol-Induced Catalepsy
# protocol_notes: Effect on haloperidol-induced catalepsy
# Type: in vivo, mice
# measurement_setup: rate of decrease in total score based on control group; 10 mg/kg orally

compound: CCn1c(=O)c2c(nc(/C=C/c3cccc(F)c3C)n2C)n(CC)c1=O [Compound 109]
assay_target: Haloperidol-Induced Catalepsy
Remission Rate (%): 84%
--
compound: CCn1c(=O)c2c(nc(/C=C/c3ccc(OCOC)cc3)n2C)n(CC)c1=O [Compound 82]
assay_target: Haloperidol-Induced Catalepsy
Remission Rate (%): 64%
--
compound: CCn1c(=O)c2c(nc(/C(F)=C\c3ccccc3)n2C)n(CC)c1=O [Compound 76]
assay_target: Haloperidol-Induced Catalepsy
Remission Rate (%): 40%
--
compound: COc1ccc(/C=C/c2nc3c([nH]2)c(=O)n(C)c(=O)n3C)c(C)c1C [Compound 21]
assay_target: Haloperidol-Induced Catalepsy
Remission Rate (%): 24%
--
compound: CCn1c(=O)c2c(nc(/C=C/c3ccc(OCc4ccccc4)cc3)n2C)n(CC)c1=O [Compound 113]
assay_target: Haloperidol-Induced Catalepsy
Remission Rate (%): 24%
--
compound: CCn1c(=O)c2c(nc(/C=C/c3ccc(OC)c(OC)c3OC)n2C)n(CC)c1=O [Compound 8]
assay_target: Haloperidol-Induced Catalepsy
Remission Rate (%): 92%
--
compound: CCn1c(=O)c2c(nc(/C=C/c3cccc(Br)c3)n2C)n(CC)c1=O [Compound 92]
assay_target: Haloperidol-Induced Catalepsy
Remission Rate (%): 52%
--
compound: CCn1c(=O)c2c(nc(/C=C/c3ccc(OC)c(Br)c3)n2C)n(CC)c1=O [Compound 56]
assay_target: Haloperidol-Induced Catalepsy
Remission Rate (%): 44%
